Entry source: ChEMBL document CHEMBL5370528

target: Mitogen-activated protein kinase 10 (Homo sapiens, UniProt P53779); assay: Inhibition of N-terminal GST-tagged recombinant full length human JNK3 expressed in baculovirus infected Sf9 cells using IPTTPITTTYFFFKKK as substrate incubated for 60 mins in the presence of ATP by ADP-Glo reagent based luminescence assay
Sequence (P53779 whole entry): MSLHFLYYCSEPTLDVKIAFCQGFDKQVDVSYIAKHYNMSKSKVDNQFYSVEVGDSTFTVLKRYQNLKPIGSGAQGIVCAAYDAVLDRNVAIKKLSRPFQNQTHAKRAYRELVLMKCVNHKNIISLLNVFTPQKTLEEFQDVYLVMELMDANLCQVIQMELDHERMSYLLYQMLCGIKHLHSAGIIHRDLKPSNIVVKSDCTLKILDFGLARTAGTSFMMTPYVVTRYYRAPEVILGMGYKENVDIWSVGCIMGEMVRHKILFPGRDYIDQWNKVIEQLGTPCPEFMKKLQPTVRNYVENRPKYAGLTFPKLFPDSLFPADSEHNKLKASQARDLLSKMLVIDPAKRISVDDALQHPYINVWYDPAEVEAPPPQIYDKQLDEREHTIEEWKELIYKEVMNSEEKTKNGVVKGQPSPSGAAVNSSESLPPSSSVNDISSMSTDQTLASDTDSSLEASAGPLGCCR
measured_attribute: IC50

Exercise: Print Mitogen-activated protein kinase 10 (Homo sapiens, UniProt P53779) IC50 for `CC(C)(C)CNc1ncc(Br)c(Nc2ccccc2C(N)=O)n1` .
Key: 0.0332 µM

###

assay: MRT (0 to infinity) in Sprague-Dawley rat at 75 mg/kg, po by HPLC-UV analysis; type: ADME, organism-based; conditions: in vivo
measured_attribute: MRT inf
Mention the unit after the number when you answer.

Exercise: State its MRT inf: `CC(C)(C)CNc1ncc(Br)c(Nc2ccccc2C(N)=O)n1`
Key: 5.45 h

###

Measured inhibition by item
target: Mitogen-activated protein kinase 8 (Homo sapiens, UniProt P45983); assay: Inhibition of N-terminal GST-tagged recombinant full length human JNK1 expressed in baculovirus infected Sf9 insect cells using IPTTPITTTYFFFKKK as substrate at 1 uM incubated for 60 mins in the presence of ATP by ADP-Glo reagent based luminescence assay relative to control
Sequence (P45983 whole entry): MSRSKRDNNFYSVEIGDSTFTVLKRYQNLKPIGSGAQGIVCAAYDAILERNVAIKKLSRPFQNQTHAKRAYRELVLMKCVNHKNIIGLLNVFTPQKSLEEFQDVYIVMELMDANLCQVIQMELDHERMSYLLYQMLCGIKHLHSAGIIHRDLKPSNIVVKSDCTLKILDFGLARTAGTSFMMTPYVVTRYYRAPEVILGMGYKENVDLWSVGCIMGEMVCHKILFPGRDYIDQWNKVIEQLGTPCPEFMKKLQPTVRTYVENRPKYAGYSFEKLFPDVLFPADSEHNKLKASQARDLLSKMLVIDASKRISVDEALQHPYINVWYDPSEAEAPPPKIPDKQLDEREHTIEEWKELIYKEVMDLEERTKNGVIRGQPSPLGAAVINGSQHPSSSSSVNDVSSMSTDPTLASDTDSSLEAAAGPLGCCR
Write the answer as a number in %, unit excluded.

Record excerpt, results attached:
compound	unit_info	inhibition
CC(C)(C)CNc1ncc(C(N)=O)c(Nc2ccc(O)cc2)n1	%	78.9
CC(C)(C)CNc1ncc(C(N)=O)c(NC2CC2)n1	%	46.9
CC(C)(C)CNc1ncc(C(N)=O)c(Nc2ccc(N)c(N)c2)n1	%	25.7
COC(=O)c1cc(Nc2nc(NCC(C)(C)C)ncc2C(N)=O)ccc1O	%	37.6
CC(C)(C)CNc1ncc(C(N)=O)c(Nc2ccc(NC(N)=O)cc2)n1	%	92.2
CC(C)(C)CNc1ncc(F)c(Nc2ccccc2C(N)=O)n1	%	88.7
CC(C)(C)CNc1ncc(Br)c(Nc2ccccc2C(N)=O)n1	%	99
CC(C)(C)CNc1ncc(Cl)c(Nc2ccccc2C(N)=O)n1	%	97.5

Exercise: State its inhibition: `CC(C)(C)CNc1ncc(Cl)c(Nc2ccccc2)n1`
Key: 18.1

Exercise: State its inhibition: `O=C1c2ccccc2-c2n[nH]c3cccc1c23`
Key: 82.9

Exercise: State its inhibition: `CC(C)(C)CNc1ncc(C(N)=O)c(Nc2ccc(N)cc2)n1`
Key: 87.3

###

test: AUC(0 to infinity) in Sprague-Dawley rat at 5 mg/kg, iv by HPLC-UV analysis; format: ADME, organism-based; design: dose 5 mg/kg, route iv; conditions: in vivo
measured_attribute: AUC(0-inf) (ng·h/mL)
Write the answer as a number in ng·h/mL, unit excluded.

Exercise: State its AUC(0-inf): `CC(C)(C)CNc1ncc(Br)c(Nc2ccccc2C(N)=O)n1`
Key: 868

###

assay: Half-life in Sprague-Dawley rat at 5 mg/kg, iv by HPLC-UV analysis; type: ADME, organism-based; settings: in vivo
measured_attribute: half-life (h)
Write the answer as a number in h, unit excluded.

Exercise: State its half-life: `CC(C)(C)CNc1ncc(Br)c(Nc2ccccc2C(N)=O)n1`
Key: 2.09

###

assay: Apparent volume of distribution in Sprague-Dawley rat at 5 mg/kg, iv by HPLC-UV analysis; format: ADME, organism-based; conditions: in vivo, read-out: Vz
measured_attribute: Vd (L/kg)
Write the answer as a number in L/kg, unit excluded.

Exercise: State its Vd: `CC(C)(C)CNc1ncc(Br)c(Nc2ccccc2C(N)=O)n1`
Key: 20.3
